- experimental.context: in ethyl acetate, 293.15 K
measured.attribute: solubility (mole fraction)
One number for each entry.

Lookup: Entry "NC(=O)c1ccc([N+](=O)[O-])cc1" : reported solubility (mole fraction) = ?
Found: 0.00286

====

- experimental.context: in ethylene glycol, 323.15 K
measured.attribute: solubility (mole fraction)

Lookup: # query: solubility (mole fraction) of entry "NC(=O)c1ccc([N+](=O)[O-])cc1"
Found: 0.0138

====

- experimental.context: in DMSO, 308.15 K
measured.attribute: solubility (mole fraction)
Give bare numbers.

Lookup: Requested field: solubility (mole fraction). Item: "NC(=O)c1ccc([N+](=O)[O-])cc1"
Found: 0.0613

====

- experimental.context: in DMF, 308.15 K
measured.attribute: solubility (mole fraction)

Lookup: # get_value(readout='solubility (mole fraction)', item= "NC(=O)c1ccc([N+](=O)[O-])cc1" )
Found: 0.0811

====

- experimental.context: in isobutanol, 313.15 K
measured.attribute: solubility (mole fraction)
One number for each entry.

Lookup: Can you look up the measured solubility (mole fraction) of "NC(=O)c1ccc([N+](=O)[O-])cc1" for me?
Found: 0.00286

====

- experimental.context: in ethylene glycol, 318.15 K
measured.attribute: solubility (mole fraction)
Answers are plain numbers.

Lookup: Quick one: solubility (mole fraction) for "NC(=O)c1ccc([N+](=O)[O-])cc1" ?
Found: 0.0119

====

- experimental.context: in NMP, 293.15 K
measured.attribute: solubility (mole fraction)
Numbers only.

Lookup: # input compound: "NC(=O)c1ccc([N+](=O)[O-])cc1" ; wanted: its solubility (mole fraction)
Found: 0.0549

====

- experimental.context: in acetonitrile, 283.15 K
measured.attribute: solubility (mole fraction)
One number for each entry.

Lookup: What value of measured solubility (mole fraction) is listed for "NC(=O)c1ccc([N+](=O)[O-])cc1" ?
Found: 0.000628

====

- experimental.context: in ethanol, 303.15 K
measured.attribute: solubility (mole fraction)
Give bare numbers.

Lookup: So what does the record say about solubility (mole fraction) for "NC(=O)c1ccc([N+](=O)[O-])cc1" ?
Found: 0.00351

====

- experimental.context: in DMF, 313.15 K
measured.attribute: solubility (mole fraction)
Answers are plain numbers.

Lookup: Quick check: solubility (mole fraction) of "NC(=O)c1ccc([N+](=O)[O-])cc1" ?
Found: 0.0945

====

- experimental.context: in ethanol, 313.15 K
measured.attribute: solubility (mole fraction)
One number for each entry.

Lookup: # get_value(readout='solubility (mole fraction)', item= "NC(=O)c1ccc([N+](=O)[O-])cc1" )
Found: 0.00513

====

- experimental.context: in DMSO, 318.15 K
measured.attribute: solubility (mole fraction)
Answers are plain numbers.

Lookup: Need solubility (mole fraction), item "NC(=O)c1ccc([N+](=O)[O-])cc1"
Found: 0.0888

====

- experimental.context: in DMSO, 328.15 K
measured.attribute: solubility (mole fraction)
Numbers only.

Lookup: Entry "NC(=O)c1ccc([N+](=O)[O-])cc1" : reported solubility (mole fraction) = ?
Found: 0.117

====

- experimental.context: in n-butanol, 323.15 K
measured.attribute: solubility (mole fraction)
Answers are plain numbers.

Lookup: Name the recorded solubility (mole fraction) for "NC(=O)c1ccc([N+](=O)[O-])cc1" .
Found: 0.00253
